Reference source: PubChem BioAssay (NCI)

System: OVCAR-3 ovarian
PROTOCOL: NCI-60 one-dose screen, 48 h (100 = growth as untreated, 0 = no growth, -100 = all killed)
CONDITION SUMMARY: 10 µM unless noted
The panel holds about 83,000 compounds, 20% with a hit somewhere; the sample as a whole holds those more often.
READOUT: growth (%)
The response must be a number in % with no trailing unit.

1) Cn1c(=O)c2[nH]c(NN)nc2n(C)c1=O; 118

Provide only the value of recorded growth for N=C1C(c2nc(-c3ccc(Br)cc3)cs2)=C(O)CN1CC1CCCO1 (configuration not stated)
105

Identify measured growth associated with O=c1[nH]nc(-c2ccccc2)c2c(-c3ccccc3)onc12
-15.8

Tell me measured growth for CCN(CC)c1nc(SCC(=O)Nc2nc3ccc(C)cc3s2)nc(-c2ccccc2)c1C#N please.
93.2

Please report growth for the following compound: COc1cccc(-c2nn(-c3ccccc3)cc2-c2ccnc(NCCNC(=O)Nc3ccc(Cl)c(Cl)c3)c2)c1
-6.87

Give me measured growth, please, for this compound: NC(=S)Nc1cccc(O)c1
110

Give recorded growth. C=CCSc1nc2ccccc2cc1/C=N/O
92.1

Supply recorded growth for O=C(/C=C/c1ccc(Cl)nc1)c1ccc(Cl)cc1Cl here.
78.5

Item CCN1CCN(c2nc(C)cc(NCc3cc(Nc4ccnc5cc(Cl)ccc45)ccc3F)n2)CC1 : provide growth
10.5

Give the reported value of growth for this record: NC[C@H](O)c1ccc(O)c(O)c1
108

Specify measured growth for Cc1nc2c(c(N3CCCc4ccccc43)n1)CCC2 .
-41.2

Supply recorded growth for CCCCC1CCCCN1C(=O)OCC (configuration not stated) here.
112

Given the compound CN(C)CCC=C1c2ccccc2C(C)(C)c2ccccc21 , write its reported growth.
80.1

Write down growth measured for item Cc1ccc(C(=NN=C(N)N)c2ccc(C)cc2)cc1
-34.8

Please report the measured growth for C=C(C)[C@@H]1CC[C@]2(C)[C@H](CC=C3[C@@H]4CC(C)(C)CC[C@]4(C(N)=O)CC[C@]32C)[C@@]1(C)CCC#N
23.5

Supply measured growth of O=C(Nc1cccc(C(F)(F)F)c1)Nc1cccc(C(F)(F)F)c1 in your reply.
14.4

Supply measured growth of COc1cccc(Nc2nccc(Nc3ccc4[nH]ncc4c3)n2)c1 in your reply.
-61.5

Name the recorded growth of the compound listed here: N#Cc1c(-c2ccccc2)cc(-c2ccc(Nc3nc(Nc4ccc(F)cc4)nc(Nc4ccc(F)cc4)n3)cc2)nc1N
89.5

Note down growth recorded for O=c1c2c3c(sc2nc(N/N=C/c2ccc(Br)cc2)n1Cc1ccccc1)CCCC3
76.8

Return reported growth. Input compound: Cc1cccc(-c2nc(N(C)c3ccc4ncsc4c3)c3ccccc3n2)n1
62.6

Indicate the recorded growth value for this compound: COc1ccc(-c2csc(C3=C(O)CN(CCCN4CCCC4=O)C3=N)n2)cc1OC
99.4

Hello, please tell me recorded growth for this one: COc1ccc(CN2C(=O)C(Cl)=C(Nc3cccc(C(F)(F)F)c3)C2=O)cc1
62

###

Tested on: SK-OV-3 ovarian
PROTOCOL: NCI-60 one-dose screen, 48 h (100 = growth as untreated, 0 = no growth, -100 = all killed)
CONDITION SUMMARY: 10 µM unless noted
Compounds without any hit were thinned out: in the full panel of roughly 83,000, 20% have a hit.
READOUT: growth (%)
Give your result in % as a bare value.

1) COc1ccc(/C=N/C2=C(C#N)C(c3ccc(OC)cc3)c3ccc4ccccc4c3O2)cc1 (centres undefined); 77.6
2) Cc1cc(=O)oc2c1ccc1oc(C#N)c(C)c12; 107
3) CCSC1=NC2C(N(CC)C(=O)N2CC)N1/N=C/C=C/c1ccccc1[N+](=O)[O-] (centres undefined); 28
4) Cc1nc2ccccc2c(/C=C/c2ccc(Cl)cc2)c1C(=O)/C=C/c1ccc(F)cc1; 61.9
5) O=C1OC(c2nc3ccccc3s2)=C/C1=C\c1ccc(O)cc1; 103
6) O=[N+]([O-])c1ccc(-c2cc(-c3ccc(Nc4nc(Nc5ccc(Cl)cc5)nc(Nc5ccc(Cl)cc5)n4)cc3)no2)cc1; 107
7) COc1ccc2c(c1)O/C(=C\c1cccc(OCC(=O)Nc3nc(C)c(C)s3)c1)C2=O; 101
8) O=c1c2cc(F)ccc2sc2c(NCCCN3CCCC3)nc3ccccc3c12; 88.9

Under SK-OV-3 ovarian, report growth for N#Cc1c(N)nn(C(=O)c2ccc(NC(=O)c3ccccn3)cc2)c1-c1ccc(Cl)cc1
67.2

###

System: SNB-19 CNS
PROTOCOL: NCI-60 one-dose screen, 48 h (100 = growth as untreated, 0 = no growth, -100 = all killed)
CONDITION SUMMARY: 10 µM unless noted
Compounds without any hit were thinned out: in the full panel of roughly 83,000, 20% have a hit. The source made the active and inactive calls. Rule for the calls: active = growth percent below 10; inactive = the rest.
READOUT: growth

These solved cases illustrate the format of a correct answer.
1) CC(C)(C)n1cc(-c2ccnc(NCCCNS(=O)(=O)c3ccccc3)c2)c(-c2ccccc2)n1; 89.4% (inactive)
2) COc1cc(C(=O)/C=C/c2c(-c3ccc(F)cc3)nc3sc(C)cn23)cc(OC)c1OC; 66.5% (inactive)
3) CCN(CC)S(=O)(=O)c1cccc(-c2ccc3c(NC(=O)C4CC4)n[nH]c3c2)c1; 30.6% [6.25 µM] (inactive)
4) Cc1cc(=O)[nH]c(N=Nc2c(O)[nH]c3ccccc23)n1; 103% (inactive)
5) CNS(=O)(=O)c1n[nH]nc1-c1cc(C(C)(C)C)c(O)c(C(C)(C)C)c1; 107% (inactive)

Tell me its growth given COc1cccc(Nc2nccc(Nc3ccc4[nH]ncc4c3)n2)c1 as the entry.
24.1% (inactive)

Input Cc1cc(NCc2cc(Nc3ccnc4cc(Cl)ccc34)ccc2F)nc(N2CCN(c3ccccc3)CC2)n1 , output reported growth.
76.5% (inactive)

Output measured growth for this item: CCN1CCN(c2cc(C)nc(NCc3cc(Nc4ccnc5cc(Cl)ccc45)ccc3F)n2)CC1
68.3% (inactive)

Fill in growth for record CC(=O)n1c(-c2ccc(Cl)cc2)nc2c(c1=O)C(c1ccc(Cl)cc1)c1sc3c(Cl)cccc3c1O2 (centres undefined)
14.2% (inactive)

###

Tested on: SK-MEL-28 melanoma
PROTOCOL: NCI-60 one-dose screen, 48 h (100 = growth as untreated, 0 = no growth, -100 = all killed)
CONDITION SUMMARY: 10 µM unless noted
This is part of a sample that, as a whole, favours compounds with a hit. Of some 83,000 tested, about 20% had one in any assay.
Recorded growth for the following compounds
Respond numerically; units are % and should not be typed.

# count of solved cases: 4
1. O=C(NCCc1ccc(O)c(O)c1)C12CC3CC(CC(C3)C1)C2; 104
2. COc1ccc(C2c3ccc4ccccc4c3Oc3nc(C)[nH]c(=O)c32)cc1 (stereo not given); 98.7
3. O=C1OC(c2nc3ccccc3s2)=C/C1=C\c1ccc(O)cc1; 107
4. Cc1ccc(Cc2cnc(NC(=O)c3ccc4noc(-c5ccccc5)c4c3)s2)cc1; 99

Field: next compound
Answer with the recorded growth of CCN1C(=O)N(CC)C2Nn3c(s/c(=C\c4cccc([N+](=O)[O-])c4)c3=O)=NC21 (stereo not given) only.
57.3

###

Test system: LOX IMVI melanoma
PROTOCOL: NCI-60 one-dose screen, 48 h (100 = growth as untreated, 0 = no growth, -100 = all killed)
CONDITION SUMMARY: 10 µM unless noted
Compounds without any hit were thinned out: in the full panel of roughly 83,000, 20% have a hit. Calls of active or inactive are those of the source. The calls were made as follows: active = growth percent below 10; inactive = the rest.
growth values, listed per item

A selection of reference data follows.
1) COc1ccc(C2CC(c3cccc(OC)c3)=NN2C(=O)c2cc(OC)c(OC)c(OC)c2)cc1 (centres undefined); 35.5% (inactive)
2) c1cc2ccc3cc2cc1CNCCOCCNCc1ccc2ccc(cc2c1)CNCCOCCNC3; -25.3% (active)

Note growth for the compound shown: O=c1c2cc(F)ccc2sc2c(Nc3cccnc3)nc3ccccc3c12
89.4% (inactive)

Supply reported growth belonging to this compound: Cc1ccc(N2CCN(C(=S)c3cccs3)CC2)cc1
116% (inactive)

Annotate the compound CCOc1ccccc1-c1cc(-c2cccs2)c(C#N)c(=O)[nH]1 with its measured growth.
86.6% (inactive)

Supply measured growth of CN(C)c1ccc(/C=C/C(=O)c2cccc(Nc3nc(Nc4ccccc4)nc(Nc4ccccc4)n3)c2)cc1 in your reply.
88.7% (inactive)

Report growth, nothing else, for this compound: COc1ccc2c(c1)[nH]c(=O)c1c3cccnc3cn21
33.1% (inactive)

Recall and state the measured growth for Cc1cc(=O)oc2c1ccc1oc(C#N)c(C)c12 .
88.2% (inactive)

Specify reported growth for the compound shown: COCCc1ccc(OCC(O)CNC(C)C)cc1 (centres undefined)
96.6% (inactive)

Tell me its growth given CCOC(=O)c1c2ncccc2n2c(=O)n(-c3ccccc3C)nnc12 as the entry.
86.5% (inactive)

Answer with the recorded growth of CCN1CCN(c2cc(C)nc(NCc3cc(Nc4ccnc5cc(Cl)ccc45)ccc3F)n2)CC1 only.
8.07% (active)

Report growth for O=[N+]([O-])c1ccc(N2c3ccncc3Sc3ccncc32)cc1
81.7% (inactive)

Report measured growth; entry is CCN(CC)S(=O)(=O)c1cccc(-c2ccc3c(NC(=O)C4CC4)n[nH]c3c2)c1
10.5% [6.25 µM] (inactive)

Output growth of CC(C)C(NC(=O)C1(NC(=O)OCc2ccccc2)CCCC1)C(=O)O (centres undefined)
90.2% (inactive)

Report measured growth; entry is O=C(/C=C/c1c(Cl)nc2sccn12)c1nccs1
89.1% (inactive)

Give growth for Cc1ccc(Cc2cnc(NC(=O)c3ccc4noc(-c5ccccc5)c4c3)s2)cc1
93.1% (inactive)

State its growth for this compound: CC/C=C\C[C@H](O)C/C=C1/C(=O)C=C[C@@H]1C/C=C\CCCC(=O)OC
-76.9% (active)

Look up and report measured growth for this entry: NC(=O)c1ccc[n+]([C@@H]2O[C@H](COP(=O)([O-])OP(=O)(O)OC[C@H]3O[C@@H](n4cnc5c(N)ncnc54)[C@H](O)[C@@H]3O)[C@@H](O)[C@H]2O)c1
92.9% (inactive)

Return value of growth for input CNS(=O)(=O)c1n[nH]nc1-c1cc(C(C)(C)C)c(O)c(C(C)(C)C)c1 , no commentary.
101% (inactive)

Using known records, supply growth for C=C(C)[C@@H]1CC=C2c3sc(-c4ccc(C)cc4)nc3C[C@@H](C)[C@]2(C)C1
95.3% (inactive)

Specify measured growth for COc1ccc2c(c1)O/C(=C/c1ccc(OCC(=O)c3ccccc3)cc1)C2=O .
108% (inactive)
